The values you see were collected from PubChem BioAssay AID2060889.

- Test system: LG0567-F671-PDC complex spheroids viability;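 also: spheroids exposed to compound for seven days before readout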
- method: Anticancer human tumor LG0567-F671-PDC patient-derived lung adenocarcinoma cell line growth inhibition [RAS]
- run.conditions: second compound 0.000949 µM; first compound 0.00949 µM; stronger effect = lower value
experimental.readout: viability, T/C

CC1(C)CCC(Nc2ncc(C(F)(F)F)c(-c3c[nH]c4c(P(C)(C)=O)c(C#N)ccc34)n2)CN1 (centres undefined) + CCn1c(-c2cccnc2C(C)OC)c2c3cc(ccc31)N1CCOC(CC(NC(=O)C(C(C)C)N(C)C(=O)C3(F)CCN(C(=O)C#CC(C)(C)N(C)C)CC3)C(=O)N3CCCC(N3)C(=O)OCC(C)(C)C2)C1 ... 13.2%
CC1(C)CCC(Nc2ncc(C(F)(F)F)c(-c3c[nH]c4c(P(C)(C)=O)c(C#N)ccc34)n2)CN1 (centres undefined) + CCn1c(-c2cc(N3CCN(C)CC3)cnc2C(C)OC)c2c3cc(ccc31)-c1csc(n1)CC(NC(=O)C1CC1C)C(=O)N1CCCC(N1)C(=O)OCC(C)(C)C2 ... 15.6%
CCc1c2c(nc3ccc(O)cc13)-c1cc3c(c(=O)n1C2)COC(=O)[C@]3(O)CC + CCn1c(-c2cc(N3CCN(C)CC3)cnc2C(C)OC)c2c3cc(ccc31)-c1csc(n1)CC(NC(=O)C1CC1C)C(=O)N1CCCC(N1)C(=O)OCC(C)(C)C2 ... 16.8%

Note: attention shifts to another entry.
So, CCc1c2c(nc3ccc(O)cc13)-c1cc3c(c(=O)n1C2)COC(=O)[C@]3(O)CC + CCn1c(-c2cccnc2C(C)OC)c2c3cc(ccc31)N1CCOC(CC(NC(=O)C(C(C)C)N(C)C(=O)C3(F)CCN(C(=O)C#CC(C)(C)N(C)C)CC3)C(=O)N3CCCC(N3)C(=O)OCC(C)(C)C2)C1 ? Its viability, T/C was 11.2%
